tested on: MS2 coat protein; experiment: apparent KD of MS2 coat protein; designed switch direction (-1 OFF switch, 1 ON switch): 1; higher = weaker reporter binding; details: input ligand: FMN 200 uM
ENDPOINT: apparent KD of MS2 coat protein

BIOSEQUENCE: ACAUUUAGCUCUUGCACAUGAGGAUCACCCAUGUUCGGUUCACAGGAUAUCUAGUCAAACGGGCUGGAGAAGGGUGGCAGGAGC [Islainon] (Eterna round: R96, puzzle: Same State NG 3)
TEST_TARGET: MS2 coat protein
ENDPOINT: apparent KD of MS2 coat protein
OBSERVED_MEASUREMENT: 67.9 nM
--
BIOSEQUENCE: AAAAGAAACACAGGAUAUACCGCAAUUAACACGGUAGAAGGGUGGGACAUGAGGAUCACCCAUGUGACCUGAACACCAGGUCGC [Enrien] (Eterna round: R96, puzzle: Same State NG 1)
TEST_TARGET: MS2 coat protein
ENDPOINT: apparent KD of MS2 coat protein
OBSERVED_MEASUREMENT: 369 nM
--
BIOSEQUENCE: CACGUCCAGGUAGGAUAUGAGGUGCCAUAGGGAACAGCCUAUGGACAUGAGGAUCACCCAUGUCCUCAGAAGGGCCAGACGUGA [Rasote] (Eterna round: R96, puzzle: Same State NG 2)
TEST_TARGET: MS2 coat protein
ENDPOINT: apparent KD of MS2 coat protein
OBSERVED_MEASUREMENT: 25.7 nM

* * *

tested on: MS2 coat protein; experiment: apparent KD of MS2 coat protein; designed switch direction (-1 OFF switch, 1 ON switch): -1; higher = weaker reporter binding; details: input ligand: none

BIOSEQUENCE: GCACUGGCAGGAUAUACAUGAGGAUCACCCAUGUGAUCCCUUAGGUACAAAAGUACCAGUAGAAGGGCCUGUGC [Omei Ex3 Model Bachelor's Dilema v50] (Eterna round: R97, puzzle: Exclusion 3)
TEST_TARGET: MS2 coat protein
apparent KD of MS2 coat protein / nM: 564
--
BIOSEQUENCE: GCACUGCGAGGAUAUACAUGAGGAUCACCCAUGUAUCGGUAGUCAAGGUUAAUUUAAGGUAGAAGGCGCGUAUU [JR_Ex3_Sub006] (Eterna round: R97, puzzle: Exclusion 3)
TEST_TARGET: MS2 coat protein
apparent KD of MS2 coat protein / nM: 22.7
--
BIOSEQUENCE: UUGUUACAUGAGGAUCACCCAUGUGAGGAUAUGAGGGUUAGCUUAAAUGGGCUGACUUUCAGAAGGCACAUGAA [JR_Ex1_Sub058] (Eterna round: R97, puzzle: Exclusion 1)
TEST_TARGET: MS2 coat protein
apparent KD of MS2 coat protein / nM: 235
--
BIOSEQUENCE: AUCGUGCAGCAAAGCUGUACGAGUACAUGAGGAUCACCCAUGUAGGAUAUGGUACGCAAAGCGUGCUAGAAGGAUAUGAGAUUA [Mat - Exclusion NG 3 - Mod of JL - D97] (Eterna round: R96, puzzle: Exclusion NG 3)
TEST_TARGET: MS2 coat protein
apparent KD of MS2 coat protein / nM: 57.7
--
BIOSEQUENCE: UGCAUGUCAGGAUAUCGUGCAUACAACGAAAGUUCUAUGUGCGAGAAGGGACAUGAGGAUCACCCAUGUCUUAG [Omei Ex4 A18] (Eterna round: R97, puzzle: Exclusion 4)
TEST_TARGET: MS2 coat protein
apparent KD of MS2 coat protein / nM: 22.6
--
BIOSEQUENCE: UCUUCACAUGAGGAUCACCCAUGUGAGGAUAUGGAUUCGCUGGCCGUAGCCAGUGGAUCCAGAAGGCGCGUGAU [JL-ex1-4.23] (Eterna round: R97, puzzle: Exclusion 1)
TEST_TARGET: MS2 coat protein
apparent KD of MS2 coat protein / nM: 74
--
BIOSEQUENCE: GGUGUCUUCAGAAGACAUGAGGAUCACCCAUGUAAAUGCACUGAGGAUAUACGGGCGACCGGCGUGUAGAAGGUAGAGCACGAA [Bivezale] (Eterna round: R96, puzzle: Exclusion NG 3)
TEST_TARGET: MS2 coat protein
apparent KD of MS2 coat protein / nM: 17.5
--
BIOSEQUENCE: AAAUAGCUAGAGGAUAUUGGAUAGGAUUUAAUACGAGAAGGUUAGACAUGAGGAUCACCCAUGUUGUGUUGGGA [EX6 #17] (Eterna round: R97, puzzle: Exclusion 6)
TEST_TARGET: MS2 coat protein
apparent KD of MS2 coat protein / nM: 48.5
--
BIOSEQUENCE: GUCAUGUAAGGAUAUCUUACAUGUGACUUCGGUCACUGUCAAGAGAAGGUACAUGAGGAUCACCCAUGUUCGAC [Ex4-3: 52] (Eterna round: R96, puzzle: Exclusion 4)
TEST_TARGET: MS2 coat protein
apparent KD of MS2 coat protein / nM: 21
--
BIOSEQUENCE: GCAUGAAUGUAGGAUAUCUGUAGGGCCCGGACCAGAGAAGGACGCACAUGAGGAUCACCCAUGUCUUGAUGAUC [Eternabot (L1) Solution 15] (Eterna round: R97, puzzle: Exclusion 6)
TEST_TARGET: MS2 coat protein
apparent KD of MS2 coat protein / nM: 239
